# System: Trichophyton rubrum
# Assay explanation: Antifungal activity against Trichophyton rubrum after 7 days by serial dilution method
# Format: functional
# Details: 168 h
Parameter: MIC80

Observe how each entry below is paired with its result.
Molecule	MIC80
CN(CC(O)(Cn1cncn1)c1ccc(F)cc1F)C1CCN(Cc2cccc(Cl)c2)CC1 (centres undefined)	0.25 µg/mL
CN(CC(O)(Cn1cncn1)c1ccc(F)cc1F)C1CCN(Cc2ccccc2)CC1 (centres undefined)	1 µg/mL
CN(CC(O)(Cn1cncn1)c1ccc(F)cc1F)C1CCN(Cc2ccc(Br)cc2)CC1 (centres undefined)	0.25 µg/mL
CC(C)c1ccc(CN2CCC(N(C)CC(O)(Cn3cncn3)c3ccc(F)cc3F)CC2)cc1 (centres undefined)	0.25 µg/mL
CN(CC(O)(Cn1cncn1)c1ccc(F)cc1F)C1CCN(Cc2ccc(F)cc2)CC1 (centres undefined)	1 µg/mL

QUERY: Could you please provide reported MIC80 for Cc1ccccc1CN1CCC(N(C)CC(O)(Cn2cncn2)c2ccc(F)cc2F)CC1 (centres undefined) ? Thanks!
RESULT: 1 µg/mL

QUERY: Determine from records and report MIC80 for CN(CC(O)(Cn1cncn1)c1ccc(F)cc1F)C1CCN(Cc2ccc([N+](=O)[O-])cc2)CC1 (centres undefined)
RESULT: 0.25 µg/mL

QUERY: Give me measured MIC80, please, for this molecule: OC(Cn1cncn1)(Cn1cncn1)c1ccc(F)cc1F [FLUCONAZOLE]
RESULT: 1 µg/mL

QUERY: Quote MIC80 reported for CN(CC(O)(Cn1cncn1)c1ccc(F)cc1F)C1CCN(Cc2ccccc2F)CC1 (centres undefined) please.
RESULT: 1 µg/mL

----------
The entries below are paired with their reported MIC80.
# Tested on: Candida parapsilosis
# Assay explanation: Antifungal activity against Candida parapsilosis after 24 hrs by serial dilution method
# Type: functional
# Details: Lodderomyces parapsilosis
# unit: µg/mL | format: bare number

// worked examples, MIC80 included
Compound	Tested on	MIC80 [µg/mL]
CN(CC(O)(Cn1cncn1)c1ccc(F)cc1F)C1CCN(Cc2ccccc2F)CC1 (stereo not given)	Candida parapsilosis	0.25
CN(CC(O)(Cn1cncn1)c1ccc(F)cc1F)C1CCN(Cc2ccccc2)CC1 (stereo not given)	Candida parapsilosis	0.25
CN(CC(O)(Cn1cncn1)c1ccc(F)cc1F)C1CCN(Cc2ccc(F)cc2)CC1 (stereo not given)	Candida parapsilosis	0.25

QUERY: Complete the entry with MIC80 for CN(CC(O)(Cn1cncn1)c1ccc(F)cc1F)C1CCN(Cc2ccc(C#N)cc2)CC1 (stereo not given)
RESULT: 0.25

QUERY: Provide only the value of recorded MIC80 for CN(CC(O)(Cn1cncn1)c1ccc(F)cc1F)C1CCN(Cc2ccc(Br)cc2)CC1 (stereo not given)
RESULT: 0.0625

----------
# Tested on: Candida tropicalis
# Assay explanation: Antifungal activity against Candida tropicalis after 24 hrs by serial dilution method
# Assay type: functional
Parameter: MIC80 (µg/mL)
Reply numerically in µg/mL, unit not repeated.

Molecule	Measure unit	MIC80
COc1cccc(CN2CCC(N(C)CC(O)(Cn3cncn3)c3ccc(F)cc3F)CC2)c1 (stereo not given)	µg/mL	0.25
CN(CC(O)(Cn1cncn1)c1ccc(F)cc1F)C1CCN(Cc2ccccc2F)CC1 (stereo not given)	µg/mL	0.25
CN(CC(O)(Cn1cncn1)c1ccc(F)cc1F)C1CCN(Cc2cccc(Br)c2)CC1 (stereo not given)	µg/mL	0.0625
OC(Cn1cncn1)(Cn1cncn1)c1ccc(F)cc1F	µg/mL	1

QUERY: Output MIC80 of CN(CC(O)(Cn1cncn1)c1ccc(F)cc1F)C1CCN(Cc2ccc(C#N)cc2)CC1 (stereo not given)
RESULT: 0.25

----------
Entries annotated with measured MIC80
# Test system: Candida tropicalis
# Assay explanation: Antifungal activity against Candida tropicalis after 24 hrs by serial dilution method
# Assay type: functional
Give the value in µg/mL but do not write µg/mL after it.

Consider the worked cases shown below.
Compound	Parameter	Meas value
CC(C)c1ccc(CN2CCC(N(C)CC(O)(Cn3cncn3)c3ccc(F)cc3F)CC2)cc1 (stereo not given)	MIC80	0.25
CN(CC(O)(Cn1cncn1)c1ccc(F)cc1F)C1CCN(Cc2cccc(Cl)c2)CC1 (stereo not given)	MIC80	0.25
Cc1ccccc1CN1CCC(N(C)CC(O)(Cn2cncn2)c2ccc(F)cc2F)CC1 (stereo not given)	MIC80	0.25
CN(CC(O)(Cn1cncn1)c1ccc(F)cc1F)C1CCN(Cc2ccccc2)CC1 (stereo not given)	MIC80	1

QUERY: Give MIC80 for the following compound: CN(CC(O)(Cn1cncn1)c1ccc(F)cc1F)C1CCN(Cc2ccc(Cl)cc2Cl)CC1 (stereo not given)
RESULT: 0.0625

----------
# Tested on: Trichophyton rubrum
# Assay explanation: Antifungal activity against Trichophyton rubrum after 7 days by serial dilution method
# Assay type: functional
# Details: 168 h
Listing of recorded MIC80 by entry.
Reply with just the number (in µg/mL).

Molecule	Measure unit	MIC80
CN(CC(O)(Cn1cncn1)c1ccc(F)cc1F)C1CCN(Cc2ccccc2Cl)CC1 (stereo unspecified)	µg/mL	1
CN(CC(O)(Cn1cncn1)c1ccc(F)cc1F)C1CCN(Cc2cccc(Br)c2)CC1 (stereo unspecified)	µg/mL	0.25
COc1cccc(CN2CCC(N(C)CC(O)(Cn3cncn3)c3ccc(F)cc3F)CC2)c1 (stereo unspecified)	µg/mL	1
CN(CC(O)(Cn1cncn1)c1ccc(F)cc1F)C1CCN(Cc2ccc(Cl)cc2Cl)CC1 (stereo unspecified)	µg/mL	0.25
CN(CC(O)(Cn1cncn1)c1ccc(F)cc1F)C1CCN(Cc2ccc(Cl)c(Cl)c2)CC1 (stereo unspecified)	µg/mL	0.25

Now consider a different molecule.
QUERY: Given the molecule CN(CC(O)(Cn1cncn1)c1ccc(F)cc1F)C1CCN(Cc2ccc(C#N)cc2)CC1 (stereo unspecified) , write its reported MIC80.
RESULT: 0.0625

----------
# System: Candida tropicalis
# Assay explanation: Antifungal activity against Candida tropicalis after 24 hrs by serial dilution method
# Format: functional
Parameter: MIC80

Compound	Meas value
CN(CC(O)(Cn1cncn1)c1ccc(F)cc1F)C1CCN(Cc2ccccc2Cl)CC1 (stereo not given)	0.25 µg/mL

Next item in the queue.
QUERY: Return value of MIC80 for input CN(CC(O)(Cn1cncn1)c1ccc(F)cc1F)C1CCN(Cc2ccc(Br)cc2)CC1 (stereo not given) , no commentary.
RESULT: 0.25 µg/mL

----------
# Test system: Candida parapsilosis
# Assay explanation: Antifungal activity against Candida parapsilosis after 24 hrs by serial dilution method
# Type: functional
# Details: Lodderomyces parapsilosis
Parameter: MIC80 (µg/mL)
Please give a number only; it is taken to be in µg/mL.

Molecule	Measure unit	MIC80
CN(CC(O)(Cn1cncn1)c1ccc(F)cc1F)C1CCN(Cc2cccc(Br)c2)CC1 (stereo not given)	µg/mL	0.0625
CN(CC(O)(Cn1cncn1)c1ccc(F)cc1F)C1CCN(Cc2ccc(Cl)c(Cl)c2)CC1 (stereo not given)	µg/mL	0.0625
CN(CC(O)(Cn1cncn1)c1ccc(F)cc1F)C1CCN(Cc2ccccc2Cl)CC1 (stereo not given)	µg/mL	0.0625
CN(CC(O)(Cn1cncn1)c1ccc(F)cc1F)C1CCN(Cc2cccc(Cl)c2)CC1 (stereo not given)	µg/mL	0.0625
OC(Cn1cncn1)(Cn1cncn1)c1ccc(F)cc1F [FLUCONAZOLE]	µg/mL	0.25
CC(C)c1ccc(CN2CCC(N(C)CC(O)(Cn3cncn3)c3ccc(F)cc3F)CC2)cc1 (stereo not given)	µg/mL	0.25
COc1cccc(CN2CCC(N(C)CC(O)(Cn3cncn3)c3ccc(F)cc3F)CC2)c1 (stereo not given)	µg/mL	0.25
CN(CC(O)(Cn1cncn1)c1ccc(F)cc1F)C1CCN(Cc2ccc([N+](=O)[O-])cc2)CC1 (stereo not given)	µg/mL	0.0625

QUERY: Tell me its MIC80 on Candida parapsilosis: Cc1ccccc1CN1CCC(N(C)CC(O)(Cn2cncn2)c2ccc(F)cc2F)CC1 (stereo not given)
RESULT: 0.25

QUERY: Print Candida parapsilosis MIC80 for CN(CC(O)(Cn1cncn1)c1ccc(F)cc1F)C1CCN(Cc2ccc(Cl)cc2Cl)CC1 (stereo not given) .
RESULT: 0.0625

----------
# Tested on: Candida tropicalis
# Assay explanation: Antifungal activity against Candida tropicalis after 24 hrs by serial dilution method
# Type: functional
Parameter: MIC80 (µg/mL)
Hi! Could you send only the number? It should be in µg/mL, unit omitted.

Solved entries:
Compound	Meas value
CN(CC(O)(Cn1cncn1)c1ccc(F)cc1F)C1CCN(Cc2ccc(Cl)c(Cl)c2)CC1 (stereo not drawn)	0.0625
CN(CC(O)(Cn1cncn1)c1ccc(F)cc1F)C1CCN(Cc2ccc(F)cc2)CC1 (stereo not drawn)	0.25

# ---- query compound ----
QUERY: Please give measured MIC80 of the following entry: CN(CC(O)(Cn1cncn1)c1ccc(F)cc1F)C1CCN(Cc2ccc([N+](=O)[O-])cc2)CC1 (stereo not drawn)
RESULT: 0.25

All values here come from ChEMBL document CHEMBL1629503.
